Where do these numbers come from? They come from patent US20230159445A1.

# Test system: glutathione (GSH)
# Test Protocol: Reactivity Profiling with Glutathione (GSH), half-life by HPLC
# Test Context: 5 mM glutathione (GSH) in IMDM with 10% FBS
Reported Metric: half-life at 25 μM

{"Compound": "O=C(O)c1ccc(N(Cc2cc(C3CC3)cc(C3CC3)c2)C(=O)CN(Cc2ccc(F)cc2Cl)S(=O)(=O)c2ccc(F)nc2)c(OC2CC2)c1", "Target Entity": "glutathione (GSH)", "half-life at 25 μM": "9.23 to 1670 h"}
{"Compound": "COc1cc(C(=O)O)ccc1N(Cc1cc(C2CC2)cc(C(C)(C)C)c1)C(=O)CN(Cc1ncc(F)cc1Cl)S(=O)(=O)c1c(F)c(F)c(F)c(F)c1F", "Target Entity": "glutathione (GSH)", "half-life at 25 μM": "2.37 to 4.12 h"}
{"Compound": "CC(C)(C)c1cc(CN(C(=O)CN(Cc2ncccc2C(F)(F)F)S(=O)(=O)c2c(F)c(F)c(F)c(F)c2F)c2ccc(C(=O)O)cc2C2CC2)cc(C2CC2)c1", "Target Entity": "glutathione (GSH)", "half-life at 25 μM": "4.12 to 9.23 h"}

Notebook: pull reported half-life at 25 μM for glutathione (GSH), entry "C#CCOc1cc(C(=O)O)ccc1N(Cc1cc(C2CC2)cc(C2CC2)c1)C(=O)CN(Cc1ccc(F)cc1Cl)S(=O)(=O)c1c(F)c(F)c(F)c(F)c1F"
0.00167 to 2.37 h

Item: "O=C(O)c1ccc(N(Cc2nc(C3CC3)cc(C3CC3)n2)C(=O)CN(Cc2ccc(F)cc2Cl)S(=O)(=O)c2c(F)c(F)c(F)c(F)c2F)c(OC2CC2)c1" Test system: glutathione (GSH) Read-out: half-life at 25 μM Value: ?
2.37 to 4.12 h

Identify the measured half-life at 25 μM of "CC(C)(C)c1cc(CN(C(=O)CN(Cc2c(F)c(F)c(F)c(F)c2F)S(=O)(=O)c2c(F)c(F)c(F)c(F)c2F)c2ccc(C(=O)O)cc2OC2CC2)cc(C2CC2)c1" for glutathione (GSH).
9.23 to 1670 h

glutathione (GSH) / half-life at 25 μM / "COc1cc(N(Cc2cc(C3CC3)cc(C(C)(C)C)c2)C(=O)CN(Cc2ccc(Cl)cc2)S(=O)(=O)c2c(F)c(F)c(F)c(F)c2F)ccc1C(=O)O" : value?
4.12 to 9.23 h
